assay: Compound toxicity, ATPLite total ATP levels; type: cell-based; details: human, HepAD38 cells; 15,000 cells/well, three days after compound addition; 50% reduction of total ATP levels relative to no drug controls
Reported values of CC50 at 3 days for individual entries
Property: CC50 at 3 days

1) CC(C)OC(=O)NCCCNS(=O)(=O)c1cc(-c2nc(-c3ccc(Br)c(F)c3)c[nH]2)ccc1Cl [Example 140] :: > 30 µM
2) O=S(=O)(c1cc(-c2nc(-c3ccc(Br)c(F)c3)c[nH]2)ccc1Cl)N1CCCC1CO (stereo not shown) [Example 107] :: > 30 µM
3) O=S(=O)(c1cc(-c2cc(-c3ccc(F)c(Br)c3)[nH]n2)ccc1Cl)N1CCC(O)CC1 [Example 24] :: < 10 µM
4) Cc1cc(-c2cnc(-c3ccc(Cl)c(S(=O)(=O)N4CCC(O)CC4)c3)[nH]2)ccc1F [Example 45] :: > 30 µM
5) O=S(=O)(c1cc(-c2ncc(-c3ccc(F)c(Br)c3)[nH]2)ccc1Cl)N1CCOCC1 [Example 42] :: 10 to 30 µM
6) COCCN(C)S(=O)(=O)c1cc(-c2nc(-c3ccc(Br)c(F)c3)c[nH]2)ccc1Cl [Example 105] :: > 30 µM
7) O=S(=O)(c1cc(-c2ncc(-c3ccc(F)c(Br)c3)[nH]2)ccc1Cl)N1CCC(O)CC1 [Example 14] :: 10 to 30 µM
8) O=S(=O)(c1cc(-c2nc(-c3ccc(Br)c(F)c3)c[nH]2)ccc1Cl)N1CCC(O)CC1 [Example 18] :: 10 to 30 µM
9) O=S(=O)(c1cc(-c2nc(-c3ccc(C4CC4)cc3)c[nH]2)ccc1Cl)N1CCC(O)CC1 [Example 101] :: < 10 µM
10) O=S(=O)(c1cc(-c2nc(-c3ccc(Br)c(F)c3)c[nH]2)ccc1Cl)N1CCN(c2ccccn2)CC1 [Example 130] :: > 30 µM
